test_protocol: logP determination by HPLC on a reversed-phase column (C 18), EEC Directive 79/831 Annex V.A8
Type: physicochemical
experimental_context: method marker [b]; isomer A / isomer B / isomer mixture as noted in the cell
Overview of reported logP across a group of compounds:

Here are 5 compounds together with their reported answers.
smiles_data=CCC(=NOCCCON=C(C)c1cccc(C)n1)c1ncccc1C result=3.28^[b]
smiles_data=C=C(CON=C(C)c1ccccn1)CON=C(C)c1ccccn1 result=3.00^[b]
smiles_data=C=C(CON=C(C)c1cccc(C)n1)CON=C(C)c1cccn1C result=4.37^[b]
smiles_data=C=C(CON=C(C)c1cccc(C)n1)CON=C(C)c1cccc(OC)n1 result=4.82^[b]
smiles_data=CC(=NOCCCON=C(C)c1ccncc1)c1ccncc1 result=1.23^b]

Value of logP reported for the compound `C=C(CO/N=C(\N)c1nc(COC)c(C)c(COC)n1)CO/N=C(\N)c1nc(COC)c(C)c(COC)n1` is 1.83^[b]

Value of logP reported for the compound `C=C(CON=C(C)c1cccc(C)n1)CON=C(N)c1cc(C(F)(F)F)cc(C)n1` is 4.37^[b]

Value of logP reported for the compound `C=C(CON=C(C)c1ccc(Cl)nc1)CON=C(C)c1ccc(Cl)nc1` is 4.38^[b]

Value of logP reported for the compound `C=C(CON=C(C)c1ncc(Cl)cc1Cl)CON=C(C)c1ncc(Cl)cc1Cl` is 5.75^[b]

Value of logP reported for the compound `C=C(CON=C(N)c1cc(C)cc(C)n1)CON=C(N)c1cc(C)cc(C)n1` is 2.7^[b]

Value of logP reported for the compound `C=C(CON=C(C)c1ncccc1Cl)CON=C(C)c1ncccc1Cl` is 3.64^[b]

Value of logP reported for the compound `C=C(CO/N=C(\N)c1nc(C)c2c(n1)CCCC2)CO/N=C(\N)c1nc(C)c2c(n1)CCCC2` is 2.67^[b]

Value of logP reported for the compound `CC(=NOCC(=O)CON=C(C)c1cccc(C)n1)c1cccc(C)n1` is 2.20^[b]
